Below is a list of entries, each paired with its recorded pIC50 value.
# testSystem: human recombinant GPR65 (Homo sapiens, UniProt Q8IYL9)
# Sequence (Q8IYL9 whole entry): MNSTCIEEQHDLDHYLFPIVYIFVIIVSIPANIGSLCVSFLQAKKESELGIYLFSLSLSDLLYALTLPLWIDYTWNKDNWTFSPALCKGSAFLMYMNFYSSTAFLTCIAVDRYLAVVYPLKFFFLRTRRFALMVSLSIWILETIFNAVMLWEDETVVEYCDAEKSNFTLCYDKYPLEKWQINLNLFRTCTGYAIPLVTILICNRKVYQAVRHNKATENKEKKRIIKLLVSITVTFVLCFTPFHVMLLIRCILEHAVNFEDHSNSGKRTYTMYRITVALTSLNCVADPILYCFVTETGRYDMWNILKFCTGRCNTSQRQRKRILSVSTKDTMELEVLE
# method: Human GPR65 cAMP HTRF antagonist assay
# testSettings: 1321N1 cells stably expressing human recombinant GPR65, assay pH 7.2, read-out: hGPR65 IC50
pIC50: −log10 of the molar value.

# pIC50 of CC1CN(C(=O)Nc2cc(Cl)c(C(F)(F)F)cc2F)Cc2cnc(F)cc21 (stereo not shown) = 5.30 to 6.30

---

# testSystem: human recombinant GPR65 (Homo sapiens, UniProt Q8IYL9)
# method: Human GPR65 cAMP HTRF antagonist assay
# testSettings: 1321N1 cells stably expressing human recombinant GPR65, assay pH 7.2, read-out: hGPR65 IC50
pIC50: −log10 of the molar value.
recordedEndpoint: pIC50

Recorded pIC50, per entry:
INSERT INTO measurements (molecule, result) VALUES
  ('O=C(Nc1cc(Cl)c(Cl)cn1)N1CCc2cc(=O)[nH]cc2C1', '5.30 to 6.30'),
  ('CC1CN(C(=O)Nc2cc(Cl)c(C(F)(F)F)cc2F)Cc2ccnc(F)c21 (stereo not shown)', '> 6.30'),
  ('O=C(Nc1cc(Cl)c(C(F)(F)F)cn1)N1CCc2cc(=O)[nH]cc2C1', '5.30 to 6.30'),
  ('O=C1NN=C2CN(C(=O)Nc3cc(Cl)c(C(F)(F)F)cc3F)CC=C2N1', '5.30 to 6.30'),
  ('C[C@H]1CN(C(=O)Nc2cc(Cl)c(C(F)(F)F)cc2F)Cc2ccnc(F)c21 (single isomer, unassigned; isomer 2)', '> 6.30');

# pIC50 of C[C@H]1CN(C(=O)Nc2cc(Cl)c(C(F)(F)F)cc2F)Cc2c[nH]c(=O)cc21 (single isomer, unassigned; isomer 2) = > 6.30

# pIC50 of O=C(Nc1cc(Cl)c(C(F)(F)F)cc1F)N1CCc2c(ccnc2F)C1 = > 6.30

# pIC50 of O=C(Nc1nnc(C(F)(F)F)s1)N1CCc2cc(Cl)ccc2C1 = > 6.30

# pIC50 of O=C(Nc1cc(Br)c(C(F)(F)F)cc1F)N1CCc2cc(=O)[nH]cc2C1 = > 6.30

# pIC50 of C[C@@H]1CN(C(=O)Nc2cc(Cl)c(C(F)(F)F)cc2F)Cc2ccnc(F)c21 (single isomer, unassigned; isomer 1) = > 6.30

# pIC50 of C[C@@H]1CN(C(=O)Nc2cc(Cl)c(C(F)(F)F)cc2F)Cc2c[nH]c(=O)cc21 (single isomer, unassigned; isomer 1) = > 6.30

# pIC50 of O=C(Nc1nnc(C(F)(F)F)s1)N1CCc2cc(F)ccc2C1 = > 6.30

# pIC50 of CS(=O)(=O)c1nnc2c(n1)CCN(C(=O)Nc1cc(Cl)c(C(F)(F)F)cc1F)C2 = 5.30 to 6.30

# pIC50 of O=C(Nc1cc(Cl)c(C(F)(F)F)cn1)N1CCc2cc(F)ncc2C1 = 5.30 to 6.30

# pIC50 of N#Cc1ccc2c(c1)CCN(C(=O)Nc1cc(C(F)(F)F)on1)C2 = 5.30 to 6.30

# pIC50 of O=C(Nc1cc(Cl)c(C(F)(F)F)cc1F)N1CCc2cc(=O)[nH]nc2C1 = > 6.30
